EC50 listing for selected compounds.
molecular target: 229E Mpro (Human coronavirus 229E (HCoV-229E)); assay: 229E Mpro activity; type: biochemical; details: read-out: 229E Mpro EC50
Sequence (P0C6X1 2966-3267 limits assumed): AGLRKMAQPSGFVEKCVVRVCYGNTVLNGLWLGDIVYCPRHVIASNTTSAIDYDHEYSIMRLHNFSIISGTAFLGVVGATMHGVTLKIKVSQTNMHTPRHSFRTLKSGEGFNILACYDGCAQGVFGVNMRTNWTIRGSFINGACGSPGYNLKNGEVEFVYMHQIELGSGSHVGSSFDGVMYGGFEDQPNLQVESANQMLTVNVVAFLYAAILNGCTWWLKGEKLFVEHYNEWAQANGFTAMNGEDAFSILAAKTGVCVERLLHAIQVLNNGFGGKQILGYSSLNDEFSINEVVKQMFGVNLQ

Please review the entries below; each comes with its answer.
- COc1cccc2[nH]c(C(=O)N[C@H](CN[C@H](C#N)C[C@@H]3CCNC3=O)CC(C)(C)C)cc12: > 30 µM
- COc1cccc2[nH]c(C(=O)N[C@@H](CC(C)C)C(=O)N[C@@H](C[C@@H]3CCNC3=O)C(C#N)OC(=O)NC(C)C)cc12 (stereo partly drawn): > 30 µM

Value lookup for EC50; key = CC1(C)CC(C[C@@H](C#N)NC(=O)C2CC3(CCCCC3)CN2C(=O)c2cc3cccc(Cl)c3[nH]2)C(=O)N1 (single isomer, unassigned) [930 (Isomer 4)]
10 to 30 µM

Value lookup for EC50; key = COc1cccc2[nH]c(C(=O)N3CC4(CCCCC4)CC3C(=O)N[C@H](C#N)CC3CCC(C)(C)NC3=O)cc12 (single isomer, unassigned) [1111 (Isomer 4)]
> 30 µM

Value lookup for EC50; key = CC(C)(C)C[C@H](NC(=O)c1cc2c(Cl)cccc2[nH]1)C(=O)N[C@H](C#N)C[C@@H]1CCCNC1=O
< 2 µM

Value lookup for EC50; key = N#C[C@H](C[C@@H]1CCNC1=O)NC(=O)C1CC2(CCCCC2)CN1C(=O)c1cc2ccc(Cl)c(Cl)c2[nH]1 (single isomer, unassigned) [986 (Isomer 2)]
> 30 µM

Every entry's value here was drawn from patent US11524940B1.
